# PROTOCOL DESCRIPTION: Standard protocol for determination of kcat and KM (continuous spectrophotometric assay, Acetyl CoA hydrolysis at 235 nm)
# Assay type: biochemical
# CONDITION SUMMARY: purified protein; about 23° C.; 20 mM HEPES pH 6.8, 10% ethylene glycol, 0.2 mM acetyl CoA
Reported Kcat values follow for various molecules
Reply with just the number (in s⁻¹).

Worked cases, Kcat given:
* SEQ ID NO: 317: GAT polypeptide (protein, 14_6B10, GAT polypeptide) MIEVKPINAEDTYEIRHRILRPNQPLEACKYETDLLGGTFHLGGYYRGKLISIASFHQAEHPELEGQKQYQLRGMATLEGYREQKAGSTLIRHAEELLRKKGADLLWCNARTSASGYYKKLGFSEQGGVYDMPPVGPHILMYKKLT | 2.245
* SEQ ID NO: 287: GAT polypeptide (protein, 12_2G9, GAT polypeptide) MIEVKPINAEDTYEIRHRILRPNQPLEACKYETDLLGGTFHLGGYYRGKLVSIASFHQAEHPELEGQKQYQLRGMATLEGYREQKAGSTLIRHAEELLRKKGADLLWCNARTSASGYYKKLGFSEQGEVYDTPPVGPHILMYKKLT | 2.523
* SEQ ID NO: 369: GAT polypeptide (protein, 4B_16E1, GAT polypeptide) MIEVKPINAEDTYEIRHRILRPNQPLEACKYETDLLGGTFHLGGYYRGKLISIASFHQAEHSELEGQKQYQLRGMATLEGYREQKAGSTLIRHAEELLRKKGADLLWCNARTSASGYYKKLGFSEQGGVYDIPPIGPHILMYKKLT | 0.283
* SEQ ID NO: 495: GAT polypeptide (protein, X: residue not identified in the source; ends and bridges not checked, GAT polypeptide) MLXVKPINAEDTYELRHKILRPNQPXEVCMYEXDLLRGAFHLGGFYRGKLISIASFHQAEHSDLQGQKQYQLRGMATLEGYRDQKAGSSLIKHAEQILRERGADMLWCNARTSASGYYKKLGFSEQGEVFDTPPVGPHILMYKRLT | 1.257
* SEQ ID NO: 294: GAT polypeptide (protein, 12_7D6, GAT polypeptide) MIEVKPINAEDTYEIRHRILRPNQPLEACKYETDLLGGTFHLGGYYRGKLISIASFHQAEHPELEGQKQYQLRGMATLEGYREQKAGSTLIRHAEELLRKKGADLLWCNARTSASGYYKKLGFSEQGGVYDIPPTGPHILMYKKLT | 0.898

Now take the following molecule into account.
Task: State, in one line, measured Kcat of SEQ ID NO: 264: GAT polypeptide (protein, 13_12G6, GAT polypeptide) MIEVKPINAEDTYEIRHRILRPNQPLEACKYETDLLRGAFHLGGYYRGKLVSIASFHQAEHPELEGQRQYQLRGMATLEGYREQKAGSTLIRHAEELLRKKGADLLWCNARTSASGYYKKLGFSEQGEVYDIPPTGPHILMYKKLT
Output: 0.868
